System: GB4
test protocol: qHTS profiling for inhibitors of Plasmodium falciparum proliferation (AID 504749); also: nearly all actives have a fitted effect of over 60% in size
conditions: P. falciparum in erythrocytes, SYBR Green DNA, 72 h; series mostly up to 12.8 µM
Records with an inconclusive call do not appear. Calls of active or inactive are those of the source. Calls follow the shape of the dose curve; as a rule, active = well fitted inhibition curve with a large enough effect; inconclusive = small, poorly fitted or top-dose-only effect; inactive = flat fitted curve, though single readings scatter.
Write down the outcome that applies. Available outcomes: t (active), f (inactive)

stdin: What call does the record list for NC(=O)c1cc[n+](CC2=C(C(=O)[O-])N3C(=O)[C@@H](NC(=O)Cc4cccs4)[C@@H]3SC2)cc1 ?
stdout: f

stdin: Look up the recorded call for CCC(=O)O[C@@]1(C(=O)CCl)C(C)CC2C3CCC4=CC(=O)C=C[C@@]4(C)[C@]3(F)C(O)C[C@]21C (stereo partly drawn) in this test.
stdout: t

stdin: Call for entry C[C@]12CCC(=O)C=C1CCC1C2C(=O)C[C@]2(C)C1CC[C@]2(O)C(=O)CO (stereo partly drawn) :
stdout: f

stdin: What did the test return for NCc1ccccc1CC(=O)N[C@@H]1C(=O)N2C(C(=O)O)=C(CSc3nnnn3CC(=O)O)CS[C@@H]12 ?
stdout: f

stdin: Record request — test call for CC(=O)OC1CCC2C3CCc4cc(O)ccc4C3CCC12C (stereo not drawn)
stdout: f

stdin: Status in this test for C=CCN1C(=CCO)[C@H]2C[C@H]3[C@@H]1CC[C@@]31c3ccccc3N3C=C4[C@@H]5N(/C=C/2[C@H]31)c1ccccc1[C@]51CC[C@H]2[C@H]1C[C@@H]4/C(=C/CO)N2CC=C ?
stdout: f

stdin: Give the logged outcome of this assay for the following molecule: CC=C(/C(=C/C)c1ccc(O)cc1)c1ccc(O)cc1
stdout: f

stdin: Please state the recorded outcome for this molecule: O=C(N/N=C\c1ccc([N+](=O)[O-])o1)c1ccc(O)cc1
stdout: t
